B1: library; a variant is named by its letters at N, in order (parent)
chain: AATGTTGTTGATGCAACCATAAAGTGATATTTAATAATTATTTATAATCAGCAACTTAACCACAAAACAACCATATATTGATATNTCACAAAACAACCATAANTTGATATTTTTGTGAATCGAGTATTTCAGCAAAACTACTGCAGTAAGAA

variants of: B1; assay: relative integration efficiency (T-RL orientation) vs wild-type transposon end (log2 (normalized fold change)); transposon end mutated: left end; higher = more efficient transposition; conditions: with VchCAST RNA-guided transposition machinery (E. coli BL21(DE3) host, lacZ target)
MEASUREMENT LABEL: relative integration efficiency (log2)
Answer with a bare number; do not write a unit.

Q) Fill in: relative integration efficiency (log2) of CA A16C G24T T32G A33C T104A T110A T113A is ___
A) -0.976

Q) Fill in: relative integration efficiency (log2) of CG A91C A92C is ___
A) -0.116

Q) Fill in: relative integration efficiency (log2) of CG T39C A40T T41G T43G A46T A47G C49T G51T A54C C55A is ___
A) -2.86

Q) Fill in: relative integration efficiency (log2) of CG A123C G124T T125G is ___
A) -0.171

Q) Fill in: relative integration efficiency (log2) of TA A16C G24T T30A T76A A77G C87T A96C T112G T113C is ___
A) -0.0655

Q) Fill in: relative integration efficiency (log2) of CG G115T is ___
A) 0.238

Q) Fill in: relative integration efficiency (log2) of CG A23G G24T A33T is ___
A) -0.108

Q) Fill in: relative integration efficiency (log2) of CG A37C T38G is ___
A) -0.236

Q) Fill in: relative integration efficiency (log2) of TA A16C G24T T32G A33C T76A A77G C87T A96C T110A T113A is ___
A) -0.54

Q) Fill in: relative integration efficiency (log2) of CG G26C G80C G106C is ___
A) -6.9

Q) Fill in: relative integration efficiency (log2) of CG T48G C49A A50C G51T C52A A53C A54C C55A T56G T57G A58C is ___
A) -2.79

Q) Fill in: relative integration efficiency (log2) of TA A16C G24T T30A T76A T78G C87A A102T T111C T113C is ___
A) -0.243

Q) Fill in: relative integration efficiency (log2) of TA A16C G24T T30A A70C T76A T86G T104A T110A T113A is ___
A) -0.764

Q) Fill in: relative integration efficiency (log2) of CG C87A A88C C89A A90C is ___
A) 0.292

Q) Fill in: relative integration efficiency (log2) of CG T114G T120A is ___
A) -0.2

Q) Fill in: relative integration efficiency (log2) of CG A37T T38A T39A A40T is ___
A) 0.137

Q) Fill in: relative integration efficiency (log2) of CG T43G A44C is ___
A) -0.0854

Q) Fill in: relative integration efficiency (log2) of CG T114A is ___
A) -0.291

Q) Fill in: relative integration efficiency (log2) of CG A11C is ___
A) -0.401

Q) Fill in: relative integration efficiency (log2) of CG T48G C49A A50C G51T is ___
A) -1.55

Q) Fill in: relative integration efficiency (log2) of CG C61G A62T is ___
A) -0.362

Q) Fill in: relative integration efficiency (log2) of CG T78C is ___
A) -0.0794
